These data points were gathered from PubChem BioAssay (NCI).

test system: KM12 colon; test: NCI-60 one-dose screen, 48 h (100 = growth as untreated, 0 = no growth, -100 = all killed); settings: 10 µM
The panel holds about 83,000 compounds, 20% with a hit somewhere; the sample as a whole holds those more often.
// values below are reported growth
Metric name: growth (%)

1) Nc1ccc(Sc2ccc3c4c2cccc4c(=O)n2c4ccccc4nc32)cc1 :: 73.6
2) CC1(C)CC(=O)c2c(nc3ccc(Cl)cc3c2-c2ccccc2)C1 :: 94
3) N#Cc1c2c([nH]c(=O)c1C(N)=O)CCCCC2 :: 106
4) COc1ccc2oc(=O)cc(C3c4ccc([nH]4)C(c4cc(=O)oc5ccc(OC)cc45)c4ccc([nH]4)C(c4cc(=O)oc5ccc(OC)cc45)c4ccc([nH]4)C(c4cc(=O)oc5ccc(OC)cc45)c4ccc3[nH]4)c2c1 (centres undefined) :: 1.11
5) O=c1ccc2nc(-c3ccccc3)nn(-c3ccccc3)c-2c1 :: 63.1
6) Nc1ccc2c(c1)Cc1cc(N)c(Cl)cc1-2 :: 108
7) COc1cc(-c2nc3ccc(C)cc3[nH]2)ccc1OCC(=O)N=Nc1c(O)[nH]c2ccccc12 :: -79.4
8) O=C(c1ccc(Cl)cc1)c1no[n+]([O-])c1C(=O)c1ccc(Cl)cc1 :: 88.5
9) CC(C)(C)CC(C)(C)c1ccc(O)c(Cc2ccc(Cl)cc2Cl)c1 :: -88.5
